Exercise: for every item that follows, state its recorded inhibition at 40 µM.
target: Human FXIa (Homo sapiens (Human), UniProt P03951); assay: Determination of the % inhibition / IC50 for FXIa; assay type: biochemical; conditions: 40 μM test compound; read-out: % Inhibition @ 40 μM (human FXIa)
Sequence (P03951 388-625): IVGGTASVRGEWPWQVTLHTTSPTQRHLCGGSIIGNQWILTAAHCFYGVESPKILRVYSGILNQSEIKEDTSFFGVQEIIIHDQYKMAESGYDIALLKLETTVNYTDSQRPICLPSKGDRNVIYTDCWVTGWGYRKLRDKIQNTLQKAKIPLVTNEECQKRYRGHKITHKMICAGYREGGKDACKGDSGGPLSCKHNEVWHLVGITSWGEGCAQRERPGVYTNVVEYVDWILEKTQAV
Sequence (P03951 19-387): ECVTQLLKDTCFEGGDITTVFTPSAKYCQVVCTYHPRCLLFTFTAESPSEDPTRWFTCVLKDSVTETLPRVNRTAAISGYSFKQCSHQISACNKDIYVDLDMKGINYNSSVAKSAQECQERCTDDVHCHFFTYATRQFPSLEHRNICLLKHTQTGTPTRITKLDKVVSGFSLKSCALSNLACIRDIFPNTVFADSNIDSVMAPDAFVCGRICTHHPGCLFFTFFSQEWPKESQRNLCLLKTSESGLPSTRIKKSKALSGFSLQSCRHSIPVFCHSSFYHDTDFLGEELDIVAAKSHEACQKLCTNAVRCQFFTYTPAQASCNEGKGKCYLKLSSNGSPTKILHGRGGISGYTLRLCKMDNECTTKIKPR
Numeric only. Scale: %

Request: What value of inhibition at 40 µM has been reported for the following molecule? COCc1nn(Cc2ccc(Cn3cc(C)cn3)cc2)cc1C(=O)NCc1c(-n2cnnn2)ccc(OC)c1F
Response: 90

Request: What value of inhibition at 40 µM has been reported for the following molecule? COCc1nn(Cc2ccc(Cn3ccccc3=O)cc2)cc1C(=O)NCc1cc(OC)ccc1C#N
Response: 7

Request: What value of inhibition at 40 µM has been reported for the following molecule? COCc1nn(Cc2ccc(Cn3cc(F)ccc3=O)cc2)cc1C(=O)NCc1nccc(OC)c1F
Response: 7

Request: What value of inhibition at 40 µM has been reported for the following molecule? COCc1nn(Cc2ccc(Cn3ccccc3=O)cc2)cc1C(=O)NCc1c(-n2cnnn2)ccc(OC)c1F
Response: 91

----------
Exercise: for every item that follows, state its recorded pIC50.
biological target: Human FXIa (Homo sapiens (Human))
pIC50: −log10 of the molar value.

Request: Could you share what pIC50 was measured for COCc1nn(Cc2cnc(N3CCCC3)nc2)cc1C(=O)NCc1c(C#N)ccc(OC)c1F , tested on Human FXIa (Homo sapiens (Human))?
Response: 5.07

Request: Could you share what pIC50 was measured for COCc1nn(Cc2ccc(N3CCCC3)nc2)cc1C(=O)NCc1c(-n2cnnn2)ccc(OC)c1F , tested on Human FXIa (Homo sapiens (Human))?
Response: 6.63

Request: Could you share what pIC50 was measured for COCc1nn(Cc2ccc(Cn3ccccc3=O)cc2)cc1C(=O)NCc1nccc(OC)c1C , tested on Human FXIa (Homo sapiens (Human))?
Response: < 4.40

Request: Could you share what pIC50 was measured for COCc1nn(Cc2ccc(Cn3ccccc3=O)cc2)cc1C(=O)NCc1ccccc1-n1cnnn1 , tested on Human FXIa (Homo sapiens (Human))?
Response: < 4.40

Request: Could you share what pIC50 was measured for COCc1nn(Cc2ccc(Cn3ccccc3=O)cc2)cc1C(=O)NCc1c(C#N)ccc(OC)c1F [Reference Example E, reference compound] , tested on Human FXIa (Homo sapiens (Human))?
Response: < 4.40

Request: Could you share what pIC50 was measured for COCc1nn(Cc2ccc(Cn3ccccc3=O)cc2)cc1C(=O)NCc1nccc(C)c1F , tested on Human FXIa (Homo sapiens (Human))?
Response: < 4.40

Request: Could you share what pIC50 was measured for COCc1nn(Cc2ccc(Cn3ccccc3=O)cc2)cc1C(=O)NCc1nccc(OC)c1F [Reference Example D, reference compound] , tested on Human FXIa (Homo sapiens (Human))?
Response: < 4.40

----------
test: Predicted plasma clearance (Clp), well-stirred model, rat; assay type: in vitro ADME; conditions: percentage of hepatic blood flow
Measured property: Predicted in vivo rat Clp (% LBF)
Numeric only. Scale: % LBF

Request: What value of Predicted in vivo rat Clp (% LBF) has been reported for the following molecule? COc1ccnc(CNC(=O)c2cn(Cc3ccc(Cn4ccccc4=O)cc3)nc2C(F)(F)F)c1F
Response: 6

Request: What value of Predicted in vivo rat Clp (% LBF) has been reported for the following molecule? COCc1nn(Cc2ccc(Cn3ccccc3=O)cc2)cc1C(=O)NCc1cc(OC)ccc1-n1cnnn1
Response: 14

Request: What value of Predicted in vivo rat Clp (% LBF) has been reported for the following molecule? COCc1nn(Cc2ccc(Cn3ccccc3=O)cc2)cc1C(=O)NCc1c(-n2cnnn2)ccc(OC)c1F
Response: 5

Request: What value of Predicted in vivo rat Clp (% LBF) has been reported for the following molecule? COCc1nn(Cc2ccc(Cn3cc(F)ccc3=O)cc2)cc1C(=O)NCc1c(C#N)ccc(OC)c1F
Response: 10

Request: What value of Predicted in vivo rat Clp (% LBF) has been reported for the following molecule? COCc1nn(Cc2ccc(Cn3cc(F)ccc3=O)cc2)cc1C(=O)NCc1nccc(OC)c1F
Response: 1

Request: What value of Predicted in vivo rat Clp (% LBF) has been reported for the following molecule? COCc1nn(Cc2ccc(Cn3ccccc3=O)cc2)cc1C(=O)NCc1cc(OC)ccc1C#N
Response: 11

Request: What value of Predicted in vivo rat Clp (% LBF) has been reported for the following molecule? O=C(NCc1c(F)cccc1-n1cnnn1)c1cn(Cc2ccc(Cn3ccccc3=O)cc2)nc1C(F)(F)F
Response: 33

Request: What value of Predicted in vivo rat Clp (% LBF) has been reported for the following molecule? COCc1nn(Cc2ccc(Cn3cc(C)cn3)cc2)cc1C(=O)NCc1c(-n2cnnn2)ccc(OC)c1F
Response: 12

----------
assay: Plasma protein binding (PPB), rapid equilibrium dialysis, rat plasma; type: in vitro ADME; details: 5 μM test compound, dialysis 5 hrs at 37° C.
Label scheme for fraction unbound at 5 h, 5 μM: lower than 0.04 is false (0), 0.04 and above is true (1).

Request: Textbook exercise: given the entry COCc1nn(Cc2ccc(N3CCCC3)nc2)cc1C(=O)NCc1c(-n2cnnn2)ccc(OC)c1F [Example 77] , state whether its fraction unbound at 5 h, 5 μM is greater than or equal to 0.04.
Response: false (0)

Request: Textbook exercise: given the entry COCc1nn(Cc2ccc(Cn3ccccc3=O)cc2)cc1C(=O)NCc1cc(Cl)ccc1-n1cnnn1 [Example 72] , state whether its fraction unbound at 5 h, 5 μM is greater than or equal to 0.04.
Response: true (1)

Request: Textbook exercise: given the entry COc1ccc(F)c(CNC(=O)c2cn(Cc3ccc(Cn4ccccc4=O)cc3)nc2N)c1F [Example 35] , state whether its fraction unbound at 5 h, 5 μM is greater than or equal to 0.04.
Response: false (0)

Request: Textbook exercise: given the entry COc1ccnc(CNC(=O)c2cn(Cc3ccc(Cn4ccccc4=O)cc3)nc2C(F)(F)F)c1F [Example 6] , state whether its fraction unbound at 5 h, 5 μM is greater than or equal to 0.04.
Response: true (1)

Request: Textbook exercise: given the entry COc1ccc(C#N)c(CNC(=O)c2cn(Cc3ccc(Cn4ccccc4=O)cc3)nc2N)c1F [Example 43] , state whether its fraction unbound at 5 h, 5 μM is greater than or equal to 0.04.
Response: true (1)

----------
assay: Intrinsic clearance in rat liver microsomes; format: in vitro ADME; conditions: rat liver microsomes 0.5 mg/mL, 5 μM test compound, 37° C.; read-out: rat liver microsome (Clint μL/min/mg protein)
Measured property: microsomal CLint at 5 μM
Note to self: number, then unit, no commentary.

Request: What value of microsomal CLint at 5 μM has been reported for the following molecule? COc1ccnc(CNC(=O)c2cn(Cc3ccc(Cn4ccccc4=O)cc3)nc2N)c1F [Example 5]
Response: 6 µL/min/mg

Request: What value of microsomal CLint at 5 μM has been reported for the following molecule? COCc1nn(Cc2ccc(Cn3cccn3)cc2)cc1C(=O)NCc1cccc(Cl)c1 [Reference Example I, reference compound]
Response: 153 µL/min/mg

Request: What value of microsomal CLint at 5 μM has been reported for the following molecule? COCc1nn(Cc2ccc(Cn3ccccc3=O)cc2)cc1C(=O)NCc1nccc(OC)c1C [Example 22]
Response: 68 µL/min/mg

Request: What value of microsomal CLint at 5 μM has been reported for the following molecule? COc1ccc(C#N)c(CNC(=O)c2cn(Cc3ccc(Cn4ccccc4=O)cc3)nc2N(C)C)c1F [Example 44]
Response: 101 µL/min/mg

Request: What value of microsomal CLint at 5 μM has been reported for the following molecule? COCc1nn(Cc2ccc(Cn3cc(F)ccc3=O)cc2)cc1C(=O)NCc1nccc(OC)c1F [Example 30]
Response: 22 µL/min/mg

Request: What value of microsomal CLint at 5 μM has been reported for the following molecule? COCc1nn(Cc2ccc(Cn3cc(C)cn3)cc2)cc1C(=O)NCc1nccc(OC)c1F [Example 1]
Response: 52 µL/min/mg

Request: What value of microsomal CLint at 5 μM has been reported for the following molecule? COCc1nn(Cc2ccc(Cn3ccccc3=O)cc2)cc1C(=O)NCc1cc(Cl)ccc1-n1cnnn1 [Example 72]
Response: 72 µL/min/mg

Request: What value of microsomal CLint at 5 μM has been reported for the following molecule? COCc1nn(Cc2ccc(Cn3cc(C)cn3)cc2)cc1C(=O)NCc1c(-n2cnnn2)ccc(OC)c1F [Example 60]
Response: 114 µL/min/mg

Request: What value of microsomal CLint at 5 μM has been reported for the following molecule? COCc1nn(Cc2ccc(N3CCCC3)nc2)cc1C(=O)NCc1c(-n2cnnn2)ccc(OC)c1F [Example 77]
Response: 82 µL/min/mg

Request: What value of microsomal CLint at 5 μM has been reported for the following molecule? COCc1nn(Cc2ccc(Cn3ccccc3=O)cc2)cc1C(=O)NCc1c(C(N)=O)ccc(OC)c1F [Example 42]
Response: 11 µL/min/mg

Request: What value of microsomal CLint at 5 μM has been reported for the following molecule? O=C(NCc1c(F)cccc1-n1cnnn1)c1cn(Cc2ccc(Cn3ccccc3=O)cc2)nc1C(F)(F)F [Example 64]
Response: 94 µL/min/mg

Request: What value of microsomal CLint at 5 μM has been reported for the following molecule? COCc1nn(Cc2ccc(Cn3ccccc3=O)cc2)cc1C(=O)NCc1cc(F)ccc1-n1cnnn1 [Example 49]
Response: 36 µL/min/mg

Request: What value of microsomal CLint at 5 μM has been reported for the following molecule? COCc1nn(Cc2cnc(N3CCCC3)nc2)cc1C(=O)NCc1cc(OC)ccc1-n1cnnn1 [Example 80]
Response: 54 µL/min/mg

Request: What value of microsomal CLint at 5 μM has been reported for the following molecule? COCc1nn(Cc2cnc(N3CCCC3)nc2)cc1C(=O)NCc1c(-n2cnnn2)ccc(OC)c1F [Example 79]
Response: 23 µL/min/mg
